Kindly supply the reported Post-emergence action against ORYSA in % values for the records listed here.
Tested on: Oryza sativa (ORYSA)
Type: in vivo
Run Parameters: crop plant compatibility, 320 g/ha, effect in comparison to untreated controls
Answer with a number only, understood to be in %.

Item under review: O=C(O)COc1nn(-c2ccccn2)c(-c2ccc(Cl)nc2)c1Br [Example I-235] . Reported Post-emergence action against ORYSA in %?
0

Item under review: O=C(COc1nn(-c2ccccn2)c(-c2ccc(F)nc2)c1Br)NS(=O)(=O)CC(F)(F)F [Example I-60] . Reported Post-emergence action against ORYSA in %?
0

Item under review: O=C(CSc1nn(-c2ccccn2)c(-c2cncc(F)c2)c1Br)NC1CC1 [Example I-201] . Reported Post-emergence action against ORYSA in %?
0

Item under review: COC(=O)[C@@H](C)Oc1nn(-c2ncccc2F)c(-c2ccnc(F)c2)c1I [Example I-138] . Reported Post-emergence action against ORYSA in %?
20

Item under review: COC(=O)CCOC(=O)COc1nn(-c2ccnc(F)c2)c(-c2ccc(F)nc2)c1Br [III-27] . Reported Post-emergence action against ORYSA in %?
0

Item under review: Cc1ncccc1-n1nc(OCC(=O)O)c(Br)c1-c1cncc(F)c1 [II-38] . Reported Post-emergence action against ORYSA in %?
0

Item under review: O=C(O)COc1nn(-c2ccnc(F)c2)c(-c2ccc(F)nc2)c1Br [III-02] . Reported Post-emergence action against ORYSA in %?
20

Item under review: COC(=O)[C@@H](C)Oc1nn(-c2ccccn2)c(-c2ccc(Cl)nc2)c1Cl [Example I-237] . Reported Post-emergence action against ORYSA in %?
20

Item under review: COC(=O)CCOC(=O)COc1nn(-c2cccnc2C)c(-c2cncc(F)c2)c1Br [II-41] . Reported Post-emergence action against ORYSA in %?
0

Item under review: COC(=O)COc1nn(-c2ncccc2OC)c(-c2ccc(F)nc2)c1Cl [Example I-346] . Reported Post-emergence action against ORYSA in %?
0

Item under review: COC(=O)[C@@H](C)Oc1nn(-c2ccccn2)c(-c2ccc(Cl)nc2)c1Br [Example I-242] . Reported Post-emergence action against ORYSA in %?
0
